- System: OVCAR-5 complex spheroids with HUVEC/MSC, viability, % test/control
- assay name: Anticancer human tumor OVCAR-5 cell line growth inhibition [AhR];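 also: spheroids exposed to compounds for 7 days; 100% = DMSO vehicle control wells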
- cond: second compound 1 µM; first compound 0.01 µM; stronger effect = lower value
Measured viability, T/C of individual entries

The following compounds have reported results that may help.
[
  {
    "compound": "Cn1ncnc1C1c2n[nH]c(=O)c3cc(F)cc(c23)NC1c1ccc(F)cc1 (stereo not given) + Cc1ccccc1N=Nc1ccc(NC(=O)c2ccnn2C)c(C)c1",
    "viability, T/C": "102%"
  },
  {
    "compound": "CC[C@@]1(O)C(=O)OCc2c1cc1n(c2=O)Cc2cc3c(CN(C)C)c(O)ccc3nc2-1 + Cc1cncc(-c2nc(NCCc3c[nH]c4ccccc34)c3ncn(C(C)C)c3n2)c1",
    "viability, T/C": "79.9%"
  },
  {
    "compound": "CC1COCCN1c1cc(-c2ccnn2C)c2ccnc(-c3ccn[nH]3)c2n1 (stereo not given) + Cc1cncc(-c2nc(NCCc3c[nH]c4ccccc34)c3ncn(C(C)C)c3n2)c1",
    "viability, T/C": "99.2%"
  },
  {
    "compound": "Nc1ncn(C2CC(O)C(CO)O2)c(=O)n1 (stereo not given) + Cc1cncc(-c2nc(NCCc3c[nH]c4ccccc34)c3ncn(C(C)C)c3n2)c1",
    "viability, T/C": "85.5%"
  }
]

Summary for this compound, CC1COCCN1c1cc(-c2ccnn2C)c2ccnc(-c3ccn[nH]3)c2n1 (stereo not given) + Cc1ccccc1N=Nc1ccc(NC(=O)c2ccnn2C)c(C)c1 : viability, T/C is 110%

###

- Tested on: OVCAR-5 complex spheroids with HUVEC/MSC, viability, % test/control
- assay name: Anticancer human tumor OVCAR-5 cell line growth inhibition [AhR];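 also: spheroids exposed to compounds for 7 days; 100% = DMSO vehicle control wells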
- cond: second compound 0.1 µM; first compound 1 µM; stronger effect = lower value
Rule: viability, T/C below 60% gives satisfied. Equal to or above 60% gives not satisfied.

These solved cases illustrate the format of a correct answer.
[
  {
    "compound": "Nc1ncn(C2CC(O)C(CO)O2)c(=O)n1 (stereo not drawn) + Cc1ccccc1N=Nc1ccc(NC(=O)c2ccnn2C)c(C)c1",
    "system tested": "OVCAR-5 complex spheroids with HUVEC/MSC, viability, % test/control",
    "class assignment": "not satisfied"
  },
  {
    "compound": "COc1ccc([C@@H](O)c2cc(-c3ncnc4cc(N5CCOCC5)ccc34)c(F)cc2Cl)nn1 + Cc1ccccc1N=Nc1ccc(NC(=O)c2ccnn2C)c(C)c1",
    "system tested": "OVCAR-5 complex spheroids with HUVEC/MSC, viability, % test/control",
    "class assignment": "not satisfied"
  },
  {
    "compound": "COc1cc(C2c3cc4c(cc3C(OC3OC5COC(C)OC5C(O)C3O)C3COC(=O)C23)OCO4)cc(OC)c1O (stereo not drawn) + Cc1cncc(-c2nc(NCCc3c[nH]c4ccccc34)c3ncn(C(C)C)c3n2)c1",
    "system tested": "OVCAR-5 complex spheroids with HUVEC/MSC, viability, % test/control",
    "class assignment": "not satisfied"
  },
  {
    "compound": "CC1(C)CCC(CN2CCN(c3ccc(C(=O)NS(=O)(=O)c4ccc(NCC5CCOCC5)c([N+](=O)[O-])c4)c(Oc4cnc5[nH]ccc5c4)c3)CC2)=C(c2ccc(Cl)cc2)C1 + CC(CO)NC(=O)c1cc(-c2ccc(Cl)cc2)nn(-c2cnn(C)c2)c1=O",
    "system tested": "OVCAR-5 complex spheroids with HUVEC/MSC, viability, % test/control",
    "class assignment": "not satisfied"
  },
  {
    "compound": "Nc1ccccc1NC(=O)c1ccc(CNC(=O)OCc2cccnc2)cc1 + CC(CO)NC(=O)c1cc(-c2ccc(Cl)cc2)nn(-c2cnn(C)c2)c1=O",
    "system tested": "OVCAR-5 complex spheroids with HUVEC/MSC, viability, % test/control",
    "class assignment": "satisfied"
  },
  {
    "compound": "COc1cc(C2c3cc4c(cc3C(OC3OC5COC(C)OC5C(O)C3O)C3COC(=O)C23)OCO4)cc(OC)c1O (stereo not drawn) + CC(CO)NC(=O)c1cc(-c2ccc(Cl)cc2)nn(-c2cnn(C)c2)c1=O",
    "system tested": "OVCAR-5 complex spheroids with HUVEC/MSC, viability, % test/control",
    "class assignment": "not satisfied"
  },
  {
    "compound": "CC1COCCN1c1cc(C2(S(C)(=N)=O)CC2)nc(-c2ccnc3[nH]ccc23)n1 (stereo not drawn) + CC(CO)NC(=O)c1cc(-c2ccc(Cl)cc2)nn(-c2cnn(C)c2)c1=O",
    "system tested": "OVCAR-5 complex spheroids with HUVEC/MSC, viability, % test/control",
    "class assignment": "not satisfied"
  },
  {
    "compound": "NS(=O)(=O)OCC1CC(n2ccc3c(NC4CCc5ccccc54)ncnc32)CC1O (stereo not drawn) + Cc1ccccc1N=Nc1ccc(NC(=O)c2ccnn2C)c(C)c1",
    "system tested": "OVCAR-5 complex spheroids with HUVEC/MSC, viability, % test/control",
    "class assignment": "satisfied"
  },
  {
    "compound": "CC1COCCN1c1cc(-c2ccnn2C)c2ccnc(-c3ccn[nH]3)c2n1 (stereo not drawn) + Cc1cncc(-c2nc(NCCc3c[nH]c4ccccc34)c3ncn(C(C)C)c3n2)c1",
    "system tested": "OVCAR-5 complex spheroids with HUVEC/MSC, viability, % test/control",
    "class assignment": "satisfied"
  },
  {
    "compound": "O=C(C=Cc1cccc(S(=O)(=O)Nc2ccccc2)c1)NO + Cc1cncc(-c2nc(NCCc3c[nH]c4ccccc34)c3ncn(C(C)C)c3n2)c1",
    "system tested": "OVCAR-5 complex spheroids with HUVEC/MSC, viability, % test/control",
    "class assignment": "satisfied"
  }
]

Query string: Determine if Nc1ccccc1NC(=O)c1ccc(CNC(=O)OCc2cccnc2)cc1 + Cc1ccccc1N=Nc1ccc(NC(=O)c2ccnn2C)c(C)c1 shows viability, T/C strictly lower than 60%.
Result string: satisfied

Query string: Determine if Nc1ncn(C2CC(O)C(CO)O2)c(=O)n1 (stereo not drawn) + Cc1cncc(-c2nc(NCCc3c[nH]c4ccccc34)c3ncn(C(C)C)c3n2)c1 shows viability, T/C strictly lower than 60%.
Result string: not satisfied

Query string: Determine if COc1ccc([C@@H](O)c2cc(-c3ncnc4cc(N5CCOCC5)ccc34)c(F)cc2Cl)nn1 + Cc1cncc(-c2nc(NCCc3c[nH]c4ccccc34)c3ncn(C(C)C)c3n2)c1 shows viability, T/C strictly lower than 60%.
Result string: not satisfied
